IC50, IL-6 release under IL-36 α stimulation (NCI/ADR-RES cells) overview
Molecular target: T1, human IL-36R (human, UniProt Q9HB29 20-575)
T1 sequence (looked up): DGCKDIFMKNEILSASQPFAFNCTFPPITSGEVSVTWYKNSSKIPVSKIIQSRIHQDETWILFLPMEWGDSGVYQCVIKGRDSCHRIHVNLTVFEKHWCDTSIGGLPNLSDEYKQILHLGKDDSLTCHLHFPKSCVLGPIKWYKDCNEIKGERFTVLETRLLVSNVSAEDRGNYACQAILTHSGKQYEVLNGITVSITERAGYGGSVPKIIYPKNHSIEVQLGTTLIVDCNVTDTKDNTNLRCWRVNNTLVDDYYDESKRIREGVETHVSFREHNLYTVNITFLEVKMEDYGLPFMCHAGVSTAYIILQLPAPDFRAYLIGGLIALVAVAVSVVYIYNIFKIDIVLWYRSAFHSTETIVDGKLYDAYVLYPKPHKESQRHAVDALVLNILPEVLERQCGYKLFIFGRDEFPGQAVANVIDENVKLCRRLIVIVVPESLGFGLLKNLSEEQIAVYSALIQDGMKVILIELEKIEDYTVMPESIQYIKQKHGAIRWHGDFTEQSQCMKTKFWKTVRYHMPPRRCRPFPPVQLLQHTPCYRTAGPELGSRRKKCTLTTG
Experiment: cell-based or functional assay
READOUT_NAME: IC50, IL-6 release under IL-36 α stimulation (NCI/ADR-RES cells) (ng/mL)

>>> reported_measurement("humanized anti-IL-36R antibody 900534 (antibody, V domains shown, IgG1 (human IgG1 L234A/L235A, human kappa)) VH: QVQLVQSGAEVKKPGASVKVSCKASGYTFTSSWMHWAKQAPGQGLEWIGEIHPNSAKTNYNQKFQGRVTMTRDTSISTAYMELSRLRSDDTAVYYCARVDYGKPWFAYWGQGTLVTVSS VL: QIVLTQSPGTLSLSPGERATLSCRASSSVSSSYLHWYQQKPGQAPRLLIYSTSSRATGIPDRFSGSGSGTDFTLTISRLEPEDFATYYCQQFQSSPLTFGQGTKLEIK")
21.6
>>> reported_measurement("humanized anti-IL-36R antibody 900527 (antibody, V domains shown, IgG1 (human IgG1 L234A/L235A, human kappa); also called HB0034) VH: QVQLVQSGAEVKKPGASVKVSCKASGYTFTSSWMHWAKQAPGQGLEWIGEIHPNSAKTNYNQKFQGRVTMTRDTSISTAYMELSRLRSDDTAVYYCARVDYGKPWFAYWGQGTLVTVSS VL: QIVLTQSPGTLSLSPGERATLSCRASSSVSSSYLHWYQQKPGQAPRLWIYSTSSRATGIPDRFSGSGSGTDFTLTISRLEPEDFATYYCQQFQSSPLTFGQGTKLEIK")
15
>>> reported_measurement("anti-IL-36R chimeric antibody 900497 (antibody, V domains shown, Human-mouse chimera: human IgG1 heavy-chain constant region with L234A and L235A (Eu numbering), human kappa constant region) VH: QVQLQQTGSVLVRPGTSVKLSCKASGYTFTSSWMHWAKQRPGQGLEWIGEIHPNSAKTNYNEKFKGKATLTVDTFSSTAYVDLSSLASEDSAVYYCARVDYGKPWFAYWGQGTLVTVSA VL: QIVLTQSPTIMSASPGERVTMTCSASSSVSSSYLHWYQQKPGSSPKLWIYSTSNLASGVPARFSGSGSGTSYSLTINSMEAEDAATYYCQQFQSSPLTFGAGTKLGLK")
33.2
>>> reported_measurement("humanized anti-IL-36R antibody 900513 (antibody, V domains shown, IgG1; built from the chimeric expression plasmids (human IgG1 L234A/L235A, human kappa)) VH: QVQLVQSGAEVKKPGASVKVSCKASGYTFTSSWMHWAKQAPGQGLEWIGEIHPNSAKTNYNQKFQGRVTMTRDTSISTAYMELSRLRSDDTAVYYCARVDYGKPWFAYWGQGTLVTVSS VL: EIVLTQSPGTLSLSPGERATLSCSASSSVSSSYLHWYQQKPGQAPRLWIYSTSNRATGIPDRFSGSGSGTDFTLTISRLEPEDFATYYCQQFQSSPLTFGQGTKLEIK")
12.4

Entry source: patent US20230399409A1
